These entries and their values trace back to PubChem BioAssay (NCI).

# Test system: MCF7 breast
# PROCEDURE_TEXT: NCI tumour cell line growth inhibition, 48 h
ASSAY_METRIC: TGI

| MOLECULE | TGI |
| --- | --- |
| CCCCCCNC(=S)N/N=C(\C)c1ccccn1 | 19 µM |
| CCOC(=O)c1c(-c2cccc(Cl)c2)c(C(=O)OC)c(C)c2sc(C=O)nc12 | 35.7 µM |
| CCOC(=O)CCC(NC(=O)C(N)c1ccc([N+](=O)[O-])cc1)C(=O)NC(CCC(=O)OCC)C(=O)OCC (stereo not drawn) | > 100 µM |
| CC[C@]1(O)CC2CN(CCc3c([nH]c4ccccc34)[C@@](C(=O)OC)(c3cc4c(cc3OC)N(C=O)[C@H]3[C@@](O)(C(=O)OC)[C@H](OC(C)=O)[C@]5(CC)C=CCN6CC[C@]43[C@@H]65)C2)C1 (stereo partly drawn) | > 50 µM |
| C/C(=N\n1c(O)c(C#N)cc(C#N)c1=O)c1ccncc1 | > 100 µM |
| CC(c1ccccc1)[C@@H](C(=O)Nc1ccc(I)cc1F)N1C(=O)N[C@H](c2ccc(OC[C@H](O)CO)cc2)C1=O (stereo partly drawn) | > 25 µM |
| Cc1cc(C)c2c(=O)n(CC(O)CN3CCN(CCOCCO)CC3)sc2n1 (stereo not drawn) | 34.2 µM |

q: Report TGI on MCF7 breast for this entry: O=C1c2ccccc2C(=O)c2c1ccc1c(=O)n(-c3ccccc3C(F)(F)F)nnc21
a: 4.64 µM

====

# System: CAKI-1 renal
# PROCEDURE_TEXT: NCI tumour cell line growth inhibition, 48 h
ASSAY_METRIC: TGI

# annotated cases, reported TGI shown
| COMPOUND | ASSAY_METRIC | ENDPOINT_RESULT |
| --- | --- | --- |
| CCN(CC)CCC1(C2CCCCC2)CCC(=O)NC1=O (centres undefined) | TGI | > 100 µM |
| C[C@@H](NC(=O)c1ncnc(N)c1Cl)c1ncc(C(=O)Nc2cc(C(F)(F)F)c(Cl)cn2)s1 | TGI | 71.6 µM |
| C/C(=N/O)c1ccc2c(c1)/C(=N/O)c1ccccc1-2 | TGI | 44.8 µM |
| CC(=O)OC(C)(C)/C=C/C(=O)[C@](C)(O)[C@H]1[C@H](O)C[C@@]2(C)[C@@H]3CC=C4[C@@H](C=C(O)C(=O)C4(C)C)[C@]3(C)C(=O)C[C@]12C | TGI | 44 nM [middle of 4 runs] |
| O=S(=O)(c1ccccc1)N1CN2CN(C1)CN(S(=O)(=O)c1ccccc1)C2 | TGI | > 100 µM |

q: Retrieve TGI measured for O=C(N/N=C(/c1nc2ccc([N+](=O)[O-])cc2[nH]c1=O)C(O)c1ccc([N+](=O)[O-])cc1)c1ccncc1 (centres undefined) and print it.
a: > 100 µM

q: Retrieve TGI measured for CN(C)C(=O)NC(=S)N(C)C and print it.
a: > 100 µM

q: Retrieve TGI measured for Cc1nc(-c2cnc(NC(C)C)n(C)c2=O)ccc1Oc1ccnc(-c2cnn(C)c2)c1 and print it.
a: 65.2 µM

q: Retrieve TGI measured for NC(=O)CC1(O)C=C(Br)C(=O)C(Br)=C1 and print it.
a: 2.96 µM

q: Retrieve TGI measured for Cc1ccc(-c2nc3cc(Cl)c(Cl)cc3nc2C#N)cc1 and print it.
a: > 100 µM

q: Retrieve TGI measured for NS(=O)(=O)c1nnc(NC(=O)c2cccc([N+](=O)[O-])c2)s1 and print it.
a: > 100 µM

q: Retrieve TGI measured for CCOC(=O)CCC(NC(=O)c1ccc(N=Cc2nc3ccccc3nc2-c2ccccc2)cc1)C(=O)OCC (centres undefined) and print it.
a: > 100 µM

q: Retrieve TGI measured for C[C@@]1(Cc2ccccc2)C(=O)N2[C@@H](CO)C(c3ccccc3)O[C@]2(C)c2ccccc21 (some centres undefined) and print it.
a: > 100 µM

q: Retrieve TGI measured for COC(=O)C1CC23C4=C(CCC41)CCC1CN4CC(C)C(CC(OC(C)=O)C12COC(C)=O)C43O (centres undefined) and print it.
a: > 100 µM

====

Below, each of the compounds is paired with its reported TGI value.
# System: A549 NSCLC
# PROCEDURE_TEXT: NCI tumour cell line growth inhibition, 48 h
Answer format: numeric, µM implied, no suffix.

| SMILES_NOTATION | SYSTEM_UNDER_TEST | UNIT_TEXT | TGI |
| --- | --- | --- | --- |
| CCOc1ccc(OCC)c([P+](c2ccccc2)(c2ccccc2)c2ccccc2)c1 | A549 NSCLC | µM | 11.6 |
| CCN1CCN(c2nc3ccccc3nc2C(=O)c2ccc(OC)c(OC)c2)CC1 | A549 NSCLC | µM | 28.3 |
| Cc1ccc(/C=C/c2c(C(=O)/C=C/c3ccc(Cl)cc3)c(C)nc3ccccc23)cc1 | A549 NSCLC | µM | 6.85 |

q: Report TGI on A549 NSCLC for this entry: O=C(CCl)Nc1cc(Cl)c(Cl)cc1Cl
a: 4.56

====

# Test system: NCI-H23 lung
# PROCEDURE_TEXT: NCI tumour cell line growth inhibition, 48 h; in the data active = GI50 below about 0.43 µM; inactive = the rest
Give one outcome, nothing more. List: 1.0 for active, 0.0 for inactive

Recorded results for 4 molecules are shown here.
| SMILES_NOTATION | ASSIGNED_CLASS |
| --- | --- |
| COc1ccc(-c2nn(-c3ccc(NC(=O)c4cc(Cl)cc(Cl)c4)cc3)cc2-c2ccncc2)cc1Cl | 0.0 |
| NC1=NC(=O)/C(=C/c2ccc3ncccc3c2)S1 | 0.0 |
| CN1CCN(c2ccc(NC(=O)c3cncnc3Nc3ccc(OCc4cccc(F)c4)c(Cl)c3)cc2)CC1 | 0.0 |
| COc1ccc(Cl)cc1Nc1nc(C(F)(F)F)ccc1C(=O)N/N=C/c1cccnc1 | 0.0 |

Shift focus to the following entry.
q: What outcome does the record of this test show for Cc1ccc(Cl)cc1NC(=O)c1cc2ccccc2cc1O ?
a: 1.0

====

Below, each of the compounds is paired with its reported log10(TGI) value.
# Test system: IGROV1 ovarian
# PROCEDURE_TEXT: NCI tumour cell line growth inhibition, 48 h
A difference of one corresponds to tenfold TGI; all values are log10 with TGI in µM.

# annotated cases, reported log10(TGI) shown
| COMPOUND | log10(TGI) |
| --- | --- |
| N#Cc1ccccc1C#C/C=C\C#CC#C/C=C\C#Cc1ccccc1C#N | 1.96 |
| CCOC(=O)c1c(-c2cccc(Cl)c2)c(C(=O)OC)c(C)c2sc(C=O)nc12 | 1.52 |
| C=C1C(=O)O[C@H]2[C@H]1CC/C(Cn1cc(-c3cccc(Cl)c3)nn1)=C\CC[C@@]1(C)O[C@@H]21 | 0.38 |
| Cc1ccc(-c2nc(N3CCNCC3)c3oc(-c4ccccc4)nc3n2)cc1 | 0.56 |
| COC1=C(OC)C(=O)C(Sc2ccc3ccccc3c2)=CC1=O | 1.59 |

q: Retrieve log10(TGI) measured for CCN(CC)CCC(CNc1ccnc2cc(Cl)ccc12)c1ccccc1 (centres undefined) and print it.
a: 1.75

q: Retrieve log10(TGI) measured for Cc1n[n+]([O-])c(C)cc1[N+](=O)[O-] and print it.
a: 1.69

q: Retrieve log10(TGI) measured for CN(C)C=NC1CCC(C(C)(C)C)CC1 (centres undefined) and print it.
a: 1.58

q: Retrieve log10(TGI) measured for COc1cc(/C=C/C(=O)/C=C/c2cc3ccc(Cl)cc3n(Cc3ccccc3)c2=O)ccc1O and print it.
a: 0.66

====

Below, each of the compounds is paired with its reported TGI value.
# System: SNB-19 CNS
# PROCEDURE_TEXT: NCI tumour cell line growth inhibition, 48 h

# annotated cases, reported TGI shown
| COMPOUND | TGI |
| --- | --- |
| CCOC(=O)c1nc2ccccc2nc1Nc1ccc(OC)cc1 | 83.9 µM |
| CC(C)N(C(=O)C12C3C4C1C1C2C3C41I)C(C)C (stereo unspecified) | > 100 µM |
| NC(=O)NNCc1c(-c2ccccc2)no[n+]1[O-] | > 100 µM |
| CSc1nn(C)cc2nc(C)nc1-2 | > 100 µM |
| Cc1cc(C)c2c(=O)n(CC(O)CN3CCN(CCOCCO)CC3)sc2n1 (stereo unspecified) | > 100 µM |
| O=c1cc(NNc2ccccc2F)[nH]c(=O)[nH]1 | > 100 µM |
| Nc1cc(S(=O)(=O)O)cc2ccc(S(=O)(=O)O)cc12 | > 100 µM |
| CCOc1ccc(OCC)c([P+](c2ccccc2)(c2ccccc2)c2ccccc2)c1 | 12.7 µM |
| C/C(=N\n1c(O)c(C#N)cc(C#N)c1=O)c1ccncc1 | > 100 µM |
| CC(NC1CCCC[C@H]1O)c1ccccc1 (stereo partly specified) | > 100 µM |

Continue with the next compound.
q: Report TGI on SNB-19 CNS for this entry: CN1N=C(c2ccccc2)C(C(c2ccccc2[N+](=O)[O-])C2C(=O)N(C)N=C2c2ccccc2)C1=O (stereo unspecified)
a: > 100 µM
